assay: small molecules captured by biotinylated probe aFST – biochemical, small-molecule microarray, fluorescence 635/667, stem cell growth factor project, primary screen (AID 1086); details: higher = more signal;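 further: score merges 667 nm fluorescence with signal-to-noise of each printed compound spot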
Kindly supply the reported composite z-score values for the records listed here.
Give the figure by itself; no unit, no explanation.

Input: # get_value(readout='composite z-score', item= O=C1CSC(c2cccc([N+](=O)[O-])c2)N1c1ccccc1 (stereo not drawn) )
Output: -0.0692

Input: Which value of composite z-score has been reported for CCOC(=O)C[C@H]1[C@H](OC(=O)c2ccccc2-c2ccccc2)[C@@H](NC(=O)c2ccccc2)c2cc(OCCCO)ccc2N1C(=O)Cc1ccc(OC)cc1 in the records?
Output: -0.0579

Input: composite z-score lookup needed for COc1ccc([Si](C)(C)[C@@H]2[C@@H](CCO)O[C@]3(C(=O)N(Cc4ccccc4)c4ccc(N5CCCCC5=O)cc43)[C@H]2C)cc1 , thanks.
Output: 0.566

Input: # input molecule: COC(=O)C(CC#Cc1ccc2c(c1)[C@]1(C(=O)N2)[C@H](c2ccc(OCCO)cc2)N2[C@H](c3ccccc3)[C@H](c3ccccc3)OC(=O)[C@H]2[C@@H]1C(=O)O)C(=O)OC ; wanted: its composite z-score
Output: 1.37

Input: Request the reported composite z-score associated with C=CCC(OC(C)=O)[C@@H]1[C@@H](N(Cc2cccc3ccccc23)C(=O)c2ccc(C)cc2)c2cc(OCCCO)ccc2N1C(=O)c1ccc2ccccc2c1 (stereo partly drawn)
Output: 0.137

Input: Value lookup for composite z-score; key = C[C@]12C(=O)N(CCCO)[C@@H]3C(=O)N(c4ccc(Cl)cc4)CC=CC31O[C@@H]1/C=C\CCCOC(=O)C12 (stereo partly drawn)
Output: -0.67

Input: Sample CCN(CC)c1ccc(N2CC=CC34O[C@@H]5/C=C\CCCOC(=O)C5[C@H]3C(=O)N(CCCCCCO)[C@@H]4C2=O)cc1 (stereo partly drawn) — what was its composite z-score?
Output: -0.958

Input: Need composite z-score, item Cc1ccc(S[C@]2(C(=O)O)CC(=O)N(C3CCCCC3)[C@@H]2c2ccc(CO)cc2)cc1
Output: 0.157

Input: # lookup: composite z-score of OCCCC1=CC(c2cccs2)N(Cc2cccc(OC(F)(F)F)c2)CC1 (stereo not drawn)
Output: -0.941

Input: Return reported composite z-score; argument: C=CCN1C(=O)[C@@]2(O[C@@H](CCn3cc([C@H](O)c4ccccc4)nn3)[C@H]([Si](C)(C)c3ccc(OC)cc3)[C@H]2C)c2cc(NC(=O)c3ccc(OC)cc3)ccc21
Output: 0.101

Input: For the molecule COCCOC(=O)N1C(=O)[C@@]2(c3cc(C#CCNC(N)=O)ccc31)[C@H](C(=O)N1CCCCCCC1)[C@H]1C(=O)O[C@H](c3ccccc3)[C@H](c3ccccc3)N1[C@@H]2c1ccc(OCCO)cc1 , what composite z-score is on record?
Output: 0.7

Input: Please look up its composite z-score: COCCOC(=O)N1C(=O)[C@@]2(c3cc(C#CC4(O)CCCCCC4)ccc31)[C@H](C(=O)N1CCN(c3ncccn3)CC1)[C@H]1C(=O)O[C@H](c3ccccc3)[C@H](c3ccccc3)N1[C@@H]2c1ccc(O)cc1
Output: -0.123

Input: Record request: composite z-score value, item C=CCOC(=O)[C@@H]1[C@H]2C(=O)O[C@H](c3ccccc3)[C@H](c3ccccc3)N2[C@H](c2ccc(OCCOC(=O)[C@@H]3C[C@@H]4C(=O)N[C@@H](CCCCNC(C)=O)C(=O)N4[C@@H]3c3ccc(O)cc3)cc2)[C@@]12C(=O)Nc1ccc(I)cc12
Output: 0.4
